The listing below reports pIC50 for compounds tested on HSV-1 protease (Human herpesvirus 1, UniProt P10210).
Sequence (P10210 1-247): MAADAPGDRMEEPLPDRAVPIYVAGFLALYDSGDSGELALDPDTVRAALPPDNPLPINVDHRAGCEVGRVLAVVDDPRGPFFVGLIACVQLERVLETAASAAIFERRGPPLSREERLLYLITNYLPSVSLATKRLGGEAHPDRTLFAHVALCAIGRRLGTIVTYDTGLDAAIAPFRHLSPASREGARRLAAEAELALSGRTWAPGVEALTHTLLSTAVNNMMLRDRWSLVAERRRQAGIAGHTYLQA
pIC50: −log10 of the molar value.
quantity-measured: pIC50

Sample records with pIC50:
Dear colleague, I am looking for the recorded pIC50 of the following compound: `Cc1c(NC(=O)OC(C)(C)C)ccc2nc(N(C)[C@@H](Cc3ccccc3)C(=O)N(C)CCc3cccnc3)oc(=O)c12` 5.77

Record: `CCc1ccc(C(=O)Nc2ccc3nc(NC(C)(C)C(=O)N(C)CCc4ccccn4)oc(=O)c3c2C)cc1` 5.96

Record: `Cc1c(NC(=O)OC(C)(C)C)ccc2nc(N[C@@H](CC3CCCCC3)C(=O)N(C)CCc3cccnc3)oc(=O)c12` 5.44

Record: `COc1cccc(C(=O)Nc2ccc3nc(NC(C)(C)C(=O)N(C)CCc4ccccn4)oc(=O)c3c2C)c1` 5.74

Record: `CCCCCCCC(=O)Nc1ccc2nc(NC(C)(C)C(=O)N(C)CCc3ccccn3)oc(=O)c2c1C` 6.10

Record: `Cc1c(NC(=O)OC(C)(C)C)ccc2nc(N3C[C@H](OCc4ccccc4)C[C@H]3C(=O)NCc3ccncc3)oc(=O)c12` 5.48

Record: `Cc1c(NC(=O)OC(C)(C)C)ccc2nc(NC(C)(C)C(=O)N(C)CCc3ccncc3)oc(=O)c12` 6.22

Record: `Cc1c(NC(=O)OC(C)(C)C)ccc2nc(N(C)[C@@H](C)C(=O)N(C)Cc3ccccn3)oc(=O)c12` 5.66

A: Cc1c(NC(=O)OC(C)(C)C)ccc2nc(N[C@@H](CCc3ccccc3)C(=O)N(C)CCc3cccnc3)oc(=O)c12
B: Cc1c(NC(=O)OC(C)(C)C)ccc2nc(N(C)[C@@H](Cc3ccccc3)C(=O)NCCc3ccccn3)oc(=O)c12
C: Cc1c(NC(=O)CCNC(=O)c2cccs2)ccc2nc(N[C@@H](C)C(=O)N(C)CCc3ccccn3)oc(=O)c12
D: Cc1c(NC(=O)OC(C)(C)C)ccc2nc(N[C@@H](CC3CCCCC3)C(=O)NCc3cccnc3)oc(=O)c12
// ranking: key=pIC50, reverse=True Answer by writing out the labels in the requested order. A, B, C, D

I: Cc1c(NC(=O)OC(C)(C)C)ccc2nc(NC(C)(C)C(=O)N(C)Cc3cccnc3)oc(=O)c12
II: Cc1c(NC(=O)c2ccco2)ccc2nc(NC(C)(C)C(=O)N(C)CCc3ccccn3)oc(=O)c12
Higher pIC50: I or II ? API: response body contains the label of the selected item. I
(I: 6.15, II: 5.85)
